- TARGET OR TEST SYSTEM: Ba/F3 stable cells (Homo sapiens, UniProt P00533, DUP771-773, cells depend on it)
- Construct: EC50 Ba/F3-EGFR H773-V774insNPH; other: Ba/F3-EGFR H773-V774insNPH cells, 72 h, CCK-8
- Sequence (P00533 with tags, fused parts or gaps DUP771-773): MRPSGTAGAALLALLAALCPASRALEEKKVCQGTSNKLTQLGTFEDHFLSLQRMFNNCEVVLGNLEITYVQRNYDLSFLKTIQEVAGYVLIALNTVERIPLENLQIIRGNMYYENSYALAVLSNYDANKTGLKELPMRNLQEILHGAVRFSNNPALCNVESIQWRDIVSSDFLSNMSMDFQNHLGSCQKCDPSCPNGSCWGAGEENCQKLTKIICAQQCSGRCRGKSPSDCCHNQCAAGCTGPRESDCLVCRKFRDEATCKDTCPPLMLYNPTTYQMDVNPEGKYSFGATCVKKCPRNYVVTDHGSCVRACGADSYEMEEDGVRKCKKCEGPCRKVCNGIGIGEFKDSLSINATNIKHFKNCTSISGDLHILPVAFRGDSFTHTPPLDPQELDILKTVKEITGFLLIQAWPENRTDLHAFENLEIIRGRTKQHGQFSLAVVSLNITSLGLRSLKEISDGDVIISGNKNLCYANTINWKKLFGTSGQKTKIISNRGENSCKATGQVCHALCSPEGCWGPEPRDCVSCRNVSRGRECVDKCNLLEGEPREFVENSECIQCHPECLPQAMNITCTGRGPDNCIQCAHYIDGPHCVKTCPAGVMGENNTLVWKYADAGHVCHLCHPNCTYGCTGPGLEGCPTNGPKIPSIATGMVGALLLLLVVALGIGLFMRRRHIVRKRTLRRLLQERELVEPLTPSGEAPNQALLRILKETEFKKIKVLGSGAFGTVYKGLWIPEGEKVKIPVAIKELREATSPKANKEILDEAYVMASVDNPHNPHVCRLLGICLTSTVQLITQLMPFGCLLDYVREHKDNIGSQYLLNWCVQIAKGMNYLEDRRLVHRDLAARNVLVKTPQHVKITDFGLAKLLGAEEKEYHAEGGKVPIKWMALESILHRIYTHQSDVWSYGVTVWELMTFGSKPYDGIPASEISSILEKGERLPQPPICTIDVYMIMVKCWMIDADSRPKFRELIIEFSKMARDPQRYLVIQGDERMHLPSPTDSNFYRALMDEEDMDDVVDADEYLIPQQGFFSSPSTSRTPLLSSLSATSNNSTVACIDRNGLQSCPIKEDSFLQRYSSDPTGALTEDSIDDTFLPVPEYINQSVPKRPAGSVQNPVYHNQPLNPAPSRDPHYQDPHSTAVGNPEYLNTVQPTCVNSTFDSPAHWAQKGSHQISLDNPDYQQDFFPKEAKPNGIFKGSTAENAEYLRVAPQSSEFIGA
- MEASUREMENT DESCRIPTION: EC50 assay: Ba/F3 stable cell proliferation (CCK-8, 72 h)
- MEASUREMENT PARAMETERS: Ba/F3-EGFR H773-V774insNPH cells
PROPERTY LABEL: EC50

Check out these entries, answers already filled in.
C=CC(=O)N1CCC(c2cc3c(Nc4ccc(Cl)c(Cl)c4F)ncnc3cc2OC)C1 (stereo not shown) [Compound 3] :: ≤ 0.2 µM
C=CC(=O)N1CC(c2cc3c(Nc4ccc(OCc5ccccc5)c(Cl)c4F)ncnc3cc2OC)C1 [Compound 2] :: > 1 µM
COc1cc2ncnc(Nc3ccc(Cl)c(Cl)c3F)c2cc1OC1CCN(C#N)CC1 [Compound 194] :: 0.2 to 1 µM
C=CC(=O)N1CC(c2cc3c(Nc4ccc(Cl)c(Cl)c4F)ncnc3cc2OCCOC)C1 [Compound 17] :: ≤ 0.2 µM
C=CC(=O)N[C@H]1C[C@@H](Oc2cc3c(C(=O)N[C@H](C)c4ccc(F)cc4)ncnc3cc2OC)C1 [Compound 97] :: > 1 µM
C#CC(=O)N1C2CCCC1CC(Oc1cc3c(Nc4ccc5ccccc5c4)ncnc3cc1OC)C2 (stereo not shown) [Compound 58] :: ≤ 0.2 µM
C=CC(=O)N1CCC(Oc2c(OC)cc3ncnc4c3c2NC(=O)N4c2ccc(Cl)c(Cl)c2F)C1 (stereo not shown) [Compound 205] :: > 1 µM
C=CC(=O)N[C@H]1CC[C@H](Oc2cc3c(Nc4ccc(Cl)c(Cl)c4F)ncnc3cc2OC)CC1 [Compound 91] :: 0.2 to 1 µM

C=CC(=O)N1CC(Oc2c(OC)cc3ncnc4c3c2NC(=O)N4c2ccc(Cl)c(Cl)c2F)C1 [Compound 216] tested on Ba/F3 stable cells (Homo sapiens, UniProt P00533, DUP771-773, cells depend on it) gave EC50: ≤ 0.2 µM

C=CC(=O)N1CCC(Oc2cc3c(Nc4ccc5c(c4)CCN5)ncnc3cc2OC)CC1 [Compound 168] tested on Ba/F3 stable cells (Homo sapiens, UniProt P00533, DUP771-773, cells depend on it) gave EC50: ≤ 0.2 µM

C=CC(=O)N[C@H]1C[C@@H](Oc2cc3c(Nc4ccc(Cl)c(Cl)c4F)ncnc3cc2OC)C1 [Compound 66] tested on Ba/F3 stable cells (Homo sapiens, UniProt P00533, DUP771-773, cells depend on it) gave EC50: ≤ 0.2 µM

C=CC(=O)NC1CC(Oc2cc3c(Nc4ccc(F)c(Cl)c4Cl)ncnc3cc2OC)C1 (stereo not shown) [Compound 76] tested on Ba/F3 stable cells (Homo sapiens, UniProt P00533, DUP771-773, cells depend on it) gave EC50: 0.2 to 1 µM
